biological target: HSA (Homo sapiens); experiment: Differential scanning fluorimetry (DSF) thermal shift assay of HSA binding; conditions: stock solvent DMSO (50% in HBS); mean ± SEM
measurementKind: pEC50
One number for each entry, as −log10 of the molar value.

Give recorded pEC50 with HSA (Homo sapiens) for the following compound: O=C(O)C(F)(F)C(F)(F)C(F)(F)C(F)(F)C(F)(F)C(F)(F)C(F)(F)F
3.07

---

biological target: HSA (Homo sapiens); assay: Differential scanning fluorimetry (DSF) thermal shift assay of HSA binding
measurementKind: Kd (µM)
One number for each entry, in µM.

Worked examples, 5 compounds total:
compound	val
O=C(O)C(F)(F)C(F)(F)C(F)(F)C(F)(F)F	2100
O=C(O)C(F)(F)C(F)(F)C(F)(F)C(F)(F)C(F)(F)C(F)(F)C(F)(F)C(F)(F)C(F)(F)F	1190
O=C(O)CCC(F)(F)C(F)(F)C(F)(F)C(F)(F)C(F)(F)F	620
O=C(O)C(F)(F)C(F)(F)C(F)(F)C(F)(F)C(F)(F)C(F)(F)C(F)(F)C(F)(F)C(F)(F)C(F)(F)F	1360
O=C(O)C(F)(F)C(F)(F)C(F)(F)C(F)(F)C(F)(F)F	1640

Query compound follows.
Under HSA (Homo sapiens): Kd value of O=C(O)CCC(F)(F)C(F)(F)C(F)(F)C(F)(F)C(F)(F)C(F)(F)C(F)(F)C(F)(F)F [8:3 FTCA, 2,H,2H,3H,3H-Perfluoroundecanoate] ?
970

---

Target: HSA (Homo sapiens, UniProt P02768)
Sequence (P02768 25-609): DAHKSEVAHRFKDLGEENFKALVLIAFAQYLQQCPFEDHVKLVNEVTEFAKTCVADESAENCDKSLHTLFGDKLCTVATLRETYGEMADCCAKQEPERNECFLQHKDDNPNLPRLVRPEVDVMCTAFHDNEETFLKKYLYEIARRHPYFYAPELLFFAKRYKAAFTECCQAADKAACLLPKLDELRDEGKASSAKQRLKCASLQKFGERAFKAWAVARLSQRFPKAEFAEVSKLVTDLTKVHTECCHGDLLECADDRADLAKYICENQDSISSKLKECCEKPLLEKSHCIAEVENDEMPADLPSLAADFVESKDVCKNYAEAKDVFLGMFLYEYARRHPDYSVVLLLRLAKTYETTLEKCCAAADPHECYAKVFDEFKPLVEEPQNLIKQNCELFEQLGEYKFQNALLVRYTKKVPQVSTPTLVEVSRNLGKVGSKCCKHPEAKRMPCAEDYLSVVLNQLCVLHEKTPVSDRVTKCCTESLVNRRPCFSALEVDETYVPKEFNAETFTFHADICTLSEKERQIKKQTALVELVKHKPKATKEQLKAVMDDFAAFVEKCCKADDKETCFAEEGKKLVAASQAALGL
Assay: Differential scanning fluorimetry (DSF) thermal shift assay of HSA binding
Conditions: PFAS; 0.125 mM HSA; ± SEM
Description: Assays were also performed in 384-well plates, in which the reactions were performed using half the final volume (10 μL) and the concentration of each reagent was halved compared to those used in the 96-well plates. […] [formula] […] Comparison between protein concentrations and comparisons of calculated binding affinities between different compounds was performed using one-way analysis of variance (ANOVA) and a Tukey's post hoc test was performed to evaluate pair-wise differences. […]
measurementKind: Δ Tm

Worked cases, answers included:
compound	val
O=S(=O)(O)CCC(F)(F)C(F)(F)C(F)(F)C(F)(F)F	3.49 ± 0.084 °C
OCCC(F)(F)C(F)(F)C(F)(F)C(F)(F)C(F)(F)C(F)(F)F	0 ± 0 °C
O=C(O)C(F)(OC(F)(F)C(F)(F)C(F)(F)F)C(F)(F)F (stereo not shown) [HFPO-DA, hexafluoropropylene oxide dimer acid]	13.7 ± 0.12 °C
O=C(O)C(F)(F)C(F)(F)C(F)(F)C(F)(F)C(F)(F)C(F)(F)F	15.3 ± 0.29 °C
FC(OC(F)(F)C(F)(F)C(F)(F)F)C(F)(F)F (stereo not shown) [E1]	7.32 ± 0.042 °C

Please go through the list and note Δ Tm for each compound.
1. O=C(O)C(F)(F)C(F)(F)C(F)(F)C(F)(F)C(F)(F)C(F)(F)C(F)(F)C(F)(F)C(F)(F)C(F)(F)C(F)(F)F
2. O=S(=O)(O)CCC(F)(F)C(F)(F)C(F)(F)C(F)(F)C(F)(F)C(F)(F)F [6:2 FTSA, 2H,2H,3H,3H-Perfluorooctane-1-sulfonate]
3. O=C(O)C(F)(F)OC(F)(F)C(F)(F)OC(F)(F)C(F)(F)OC(F)(F)F

["7.74 ± 0.14 °C", "3.60 ± 0.33 °C", "20.6 ± 0.58 °C"]

Hi, could you look up Δ Tm for each item in my list?
1. O=S(=O)(O)C(F)(F)C(F)(F)C(F)(F)C(F)(F)C(F)(F)C(F)(F)F
2. OCCC(F)(F)C(F)(F)C(F)(F)C(F)(F)F

1: 11.0 ± 0.17 °C; 2: 0 ± 0 °C

---

What pEC50 was measured for each of the following?
molecular target: HSA (Homo sapiens, UniProt P02768); assay: Differential scanning fluorimetry (DSF) thermal shift assay of HSA binding
Answers are plain numbers, as −log10 of the molar value.

The following compounds have reported results that may help.
compound	val
O=C(O)CCC(F)(F)C(F)(F)C(F)(F)C(F)(F)C(F)(F)C(F)(F)C(F)(F)C(F)(F)F [8:3 FTCA, 2,H,2H,3H,3H-Perfluoroundecanoate]	2.94
CCCCCCCCCCCCCCCC(=O)O [Hexadecanoic Acid, hexadecanoic acid, reference compound]	4.08

// next item, pEC50 requested
Give the reported pEC50 for O=C(O)CCC(F)(F)C(F)(F)C(F)(F)C(F)(F)C(F)(F)C(F)(F)F (system: HSA (Homo sapiens, UniProt P02768)).
3.08
